Biological target: T1, human heparanase (Homo sapiens, UniProt Q9Y251)
T1 sequence (Q9Y251 36-543): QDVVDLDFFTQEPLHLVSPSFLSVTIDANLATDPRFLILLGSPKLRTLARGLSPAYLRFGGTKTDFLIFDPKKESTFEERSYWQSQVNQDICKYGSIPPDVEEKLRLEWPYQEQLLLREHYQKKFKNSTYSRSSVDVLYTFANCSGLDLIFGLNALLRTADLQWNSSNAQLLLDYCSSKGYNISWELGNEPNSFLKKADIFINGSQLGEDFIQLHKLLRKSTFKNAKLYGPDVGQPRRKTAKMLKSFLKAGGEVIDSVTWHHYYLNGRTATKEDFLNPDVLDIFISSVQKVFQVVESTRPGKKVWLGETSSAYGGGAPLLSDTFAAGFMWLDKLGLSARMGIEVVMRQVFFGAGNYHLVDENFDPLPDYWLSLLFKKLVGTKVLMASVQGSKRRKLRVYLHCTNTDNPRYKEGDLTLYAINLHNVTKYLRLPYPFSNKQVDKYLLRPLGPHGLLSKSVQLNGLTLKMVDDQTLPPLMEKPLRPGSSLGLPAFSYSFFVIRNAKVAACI
Test: Cross species capture ELISA, human heparanase
Type: binding
VALUE KIND: Binding to heparanase Human (OD units)
Hi! Could you send only the number? It should be in OD units, unit omitted.

q: Give a short answer stating reported Binding to heparanase Human for 14H12.3: human anti-heparanase monoclonal antibody, G2λ; VH SEQ ID NO 26, VL SEQ ID NO 28 (antibody, listed as Homo Sapiens, V domains shown) VH: QVQLVESGGGVVQPGRSLRLSCAASGFTFSSYGMHWVRQAPGKGLEWVAVIWYDGSNKDYADSVKGRFTISRDNSKNTLYLQMNSLRAEDTAVYYCAREGSTSWTDYYGMDVWGQGTTVTVSS VL: SYELTQPPSVSVSPGQTARITCSGDALPKRYAYWYQQKSGQALVLVIYEDSKRPSGIPERFSGSSSGTMATLTISGAQVEDEADYYCYSIDSSGNHGVFGGGTKLTVL .
a: 0.61

Reference source: patent US20100233154A1
